Exercise: for every item that follows, state its recorded GI50.
# Test system: CAKI-1
# protocolNotes: NCI tumour cell line growth inhibition, 48 h
The source made the active and inactive calls. No stated cut-off is given here; in the data, active = GI50 up to about 1.1 µM and inactive = higher.

Asked: Please tell me the measured GI50 for O=S(=O)(O)c1c(/N=N/c2c(O)ccc3ccccc23)ccc2ccccc12 ; system: CAKI-1.
Given back: > 100 µM (inactive)

Asked: Please tell me the measured GI50 for N/N=C(\CC1OC(=O)c2ccccc21)c1ccco1 (centres undefined) ; system: CAKI-1.
Given back: > 100 µM (inactive)

Asked: Please tell me the measured GI50 for O=C1c2ccccc2S(=O)(=O)c2cc(-c3nn[nH]n3)ccc21 [DOXANTRAZOLE] ; system: CAKI-1.
Given back: > 87.3 µM (inactive)

Asked: Please tell me the measured GI50 for C=CCCCCCCCCCP(=O)(c1ccccc1)c1ccc2c(c1)OCCOCCOCCOCCO2 (centres undefined) ; system: CAKI-1.
Given back: > 100 µM (inactive)

Asked: Please tell me the measured GI50 for CCOc1ccncc1[N+](=O)[O-] ; system: CAKI-1.
Given back: > 100 µM (inactive)

Asked: Please tell me the measured GI50 for COC1=C(OC)C(=O)C(Sc2ccc3ccccc3c2)=CC1=O ; system: CAKI-1.
Given back: 14.7 µM (inactive)

Asked: Please tell me the measured GI50 for CC(C)(C)OC(=O)NC(CSCc1ccc(C(=O)c2ccccc2)cc1)C(=O)O (centres undefined) ; system: CAKI-1.
Given back: > 100 µM (inactive)

Asked: Please tell me the measured GI50 for O=C1C2CCCCC2C(=O)N1n1c(-c2ccccc2)n[nH]c1=O (centres undefined) ; system: CAKI-1.
Given back: > 100 µM (inactive)

Asked: Please tell me the measured GI50 for O=C1OCCC1(Cc1ccc(Cl)cc1)Cc1ccc(Cl)cc1 ; system: CAKI-1.
Given back: > 100 µM (inactive)

Asked: Please tell me the measured GI50 for N#CCCN(CCC#N)c1ccc(C(=N/c2ccc(F)cc2)/N=N/c2ccccc2)cc1 ; system: CAKI-1.
Given back: > 100 µM (inactive)

Asked: Please tell me the measured GI50 for Nc1ncnc2c1ncn2COC/C=C/I ; system: CAKI-1.
Given back: > 100 µM (inactive)

Asked: Please tell me the measured GI50 for N#CCN(Cc1ccccc1)[C@@H]1CCC[C@]1(O)C#Cc1ccc2c(c1)OCO2 ; system: CAKI-1.
Given back: 22.2 µM (inactive)

Asked: Please tell me the measured GI50 for CCCCCCCCCCCC1CCCC(C)N1 (centres undefined) ; system: CAKI-1.
Given back: 43.2 µM (inactive)

Asked: Please tell me the measured GI50 for CCN(CC)CC(C(=O)Nc1c(C)cccc1C)/C(C)=N\NC(=O)C[N+](C)(C)C (centres undefined) ; system: CAKI-1.
Given back: > 100 µM (inactive)

Asked: Please tell me the measured GI50 for OC1NC2CC3NC(O)C(O)NC3CC2NC1O (centres undefined) ; system: CAKI-1.
Given back: > 100 µM (inactive)

Asked: Please tell me the measured GI50 for NC(CCCNCc1ccccc1O)C(=O)O (centres undefined) ; system: CAKI-1.
Given back: > 100 µM (inactive)

Asked: Please tell me the measured GI50 for C[Si](C)(c1ccccc1)[C@H]1CCCC=C1CCNC1c2ccccc2CCc2ccccc21 ; system: CAKI-1.
Given back: 73.5 µM (inactive)

Asked: Please tell me the measured GI50 for Cc1c(Cl)cccc1NC(=O)C(=O)C1C(=O)CC(C)(C)CC1=O ; system: CAKI-1.
Given back: > 100 µM (inactive)

Asked: Please tell me the measured GI50 for CNC(=O)c1ccccc1-[s+]1c2ccccc2c(=O)n1C (centres undefined) ; system: CAKI-1.
Given back: > 100 µM (inactive)

Asked: Please tell me the measured GI50 for C=CC(=O)Nc1ccccc1CC(c1c[nH]c2ccccc12)c1c[nH]c2ccccc12 ; system: CAKI-1.
Given back: 18.2 µM (inactive)

Asked: Please tell me the measured GI50 for Cc1ccc2nc(C(=O)O)c(=O)[nH]c2c1 ; system: CAKI-1.
Given back: > 100 µM (inactive)

Asked: Please tell me the measured GI50 for CCNC(=O)C#CC(=O)NCC ; system: CAKI-1.
Given back: > 100 µM (inactive)

Asked: Please tell me the measured GI50 for Oc1nc2c(c(-c3ccc(F)cc3)n1)COC/C2=C\c1ccc(F)cc1 ; system: CAKI-1.
Given back: > 100 µM (inactive)

Asked: Please tell me the measured GI50 for CN1CCC2(CC1)C(=O)N(N1CCCCCC1)C(=O)N2c1ccccc1 ; system: CAKI-1.
Given back: > 100 µM (inactive)
